Assay: Antioxidant activity assessed as DPPH radical scavenging activity at 10 uM after 30 mins under dark condition relative to control
Assay type: functional
readout_kind: Activity (%)
Hi! Could you send only the number? It should be in %, unit omitted.

// query Please look up its Activity: Cc1nc(NC(=O)c2ccccc2)sc1C(=O)/C=C/c1ccc(Cl)cc1
// result 8.8

// query Now the compound Cc1nc(NC(=O)c2ccccc2)sc1C(=O)/C=C/c1cccs1
// result 2.2

// query // next record Cc1nc(NC(=O)c2ccccc2)sc1C(=O)/C=C/c1cccc(Br)c1
// result 5.7

// query Entry Cc1nc(NC(=O)c2ccccc2)sc1C(=O)/C=C/c1ccccc1 please
// result 2.5

// query Similarly, Cc1nc(NC(=O)c2ccccc2)sc1C(=O)/C=C/c1cc2c(cc1Br)OCO2 ?
// result 5.4

// query Field entry: O=C1O[C@H]([C@@H](O)CO)C(O)=C1O
// result 60.5

// query Next up: Cc1ccc(/C=C/C(=O)c2sc(NC(=O)c3ccccc3)nc2C)cc1
// result 3

// query What do you get for Cc1nc(NC(=O)c2ccc(F)cc2)sc1C(=O)/C=C/c1cccs1 ?
// result 0

// query Next entry: Cc1nc(NC(=O)c2ccccc2)sc1C(=O)/C=C/c1ccc(Br)cc1
// result 2.4

// query For Cc1nc(NC(=O)c2ccc([N+](=O)[O-])cc2)sc1C(=O)/C=C/c1ccc(Cl)cc1 then?
// result 2.4

// query Now try Cc1nc(NC(=O)c2ccccc2)sc1C(=O)/C=C/c1cccc([N+](=O)[O-])c1 .
// result 8.7

// query What do you get for Cc1nc(NC(=O)c2ccccc2)sc1C(=O)/C=C/c1ccc(N(C)C)cc1 ?
// result 0

// query Another compound to look at: COc1ccc(/C=C/C(=O)c2sc(NC(=O)c3ccccc3)nc2C)cc1OC
// result 6.4

// query Further, for Cc1nc(NC(=O)c2ccccc2)sc1C(=O)/C=C/c1ccc(F)cc1 ?
// result 3

// query Same question for COc1ccc(/C=C/C(=O)c2sc(NC(=O)c3ccccc3)nc2C)cc1 please.
// result 7.9

// query Moving on to the next compound: CC(c1cc2ccccc2s1)N(O)C(N)=O (centres undefined)
// result 10.3

// query Moving on to the next compound: COc1cc(/C=C/C(=O)c2sc(NC(=O)c3ccccc3)nc2C)cc(OC)c1OC
// result 5.7

// query Please give the result for Cc1nc(NC(=O)c2ccc(F)cc2)sc1C(=O)/C=C/c1cc2c(cc1Br)OCO2 too.
// result 5.1

// query Check Cc1ccc(/C=C/C(=O)c2sc(NC(=O)c3ccc(F)cc3)nc2C)cc1 too.
// result 15

// query And for Cc1nc(NC(=O)c2ccccc2)sc1C(=O)/C=C/c1ccco1 ?
// result 3.4

// query Also need Cc1nc(NC(=O)c2ccc(F)cc2)sc1C(=O)/C=C/c1ccc(N(C)C)cc1 , thanks.
// result 3.9

// query Cool, now COc1ccc(C(=O)Nc2nc(C)c(C(=O)/C=C/c3ccc(C)cc3)s2)cc1
// result 5.5

// query Repeat for the following compound: Cc1nc(NC(=O)c2ccc(F)cc2)sc1C(=O)/C=C/c1ccco1
// result 8.2

// query Check COc1ccc(C(=O)Nc2nc(C)c(C(=O)/C=C/c3ccc(F)cc3)s2)cc1 too.
// result 2.1
